- System: A498 renal
- Assay Notes: NCI-60 one-dose screen, 48 h
- Condition Context: 10 µM unless noted
Compounds without any hit were thinned out: in the full panel of roughly 83,000, 20% have a hit. The source made the active and inactive calls. Rule for the calls: active = growth percent below 10; inactive = the rest.
Classes used: 1 = active, -1 = inactive

Smiles Input	Category
N=C1CCC(=N)c2c1c(O)c1ccccc1c2O	-1
CSc1n(Cc2ccc3ccccc3c2)c(C)c[n+]1Cc1ccc2ccccc2c1	1
Cc1cc(NCc2cc(Nc3ccnc4cc(Cl)ccc34)ccc2F)nc(N2CCN(c3ccccc3)CC2)n1	-1
NS(=O)(=O)c1ccc(-n2nc(C(=O)N/N=C\c3ccc(F)cc3)cc2-c2ccc(Cl)cc2)cc1	-1
Cn1c(I)c(C#C[Si](C)(C)C)c(=O)n(C(=O)c2ccccc2)c1=O	-1
COc1ccc(OC)c(-c2c(C#N)c(-c3ccc(Cl)cc3)nc3c2c(-c2ccccc2)nn3-c2ccccc2)c1	-1
Cc1ccc(S(=O)(=O)n2cc(CNc3ccc(N4CCOCC4=O)cc3)c3ccccc32)cc1	1
COc1ccc(NC(=O)CSc2nnc(-c3cc(-c4ccccc4)nc4ccccc34)n2-c2ccccc2)cc1	-1

---

- Test system: PC-3 prostate
- Assay Notes: NCI-60 one-dose screen, 48 h (100 = growth as untreated, 0 = no growth, -100 = all killed)
- Condition Context: 10 µM unless noted
Compounds without any hit were thinned out: in the full panel of roughly 83,000, 20% have a hit.
Listed below: growth values for each entry.

Compound	Unit Name	growth
COc1cccc(-c2nc3sccn3c2-c2ccnc(NCCNS(=O)(=O)c3ccc(C(F)(F)F)cc3)c2)c1	%	16.8
Cc1cc(Cl)nc(NCc2cc(Nc3ccnc4cc(Cl)ccc34)ccc2F)n1	%	52.7
O=C(Nc1ccccc1Cl)Oc1ccc(-c2ccccc2)cc1	%	99.8
COc1cc(/C=N/n2c(CN3CCOCC3)nc3ccccc3c2=O)cc(OC)c1OC	%	101
CC(C)(C)C(CCc1ccc(Cl)cc1)N1CCN(C2CCCCC2)CC1 (stereo unspecified)	%	27.7
O=C1/C(=C\c2c[nH]c3ccccc23)c2ccccc2N1c1c(Cl)cccc1Cl	%	2.68
COc1ccc(C2=Nc3c(N)ncnc3NC(c3ccc4c(c3)OCO4)C2)cc1 (stereo unspecified)	%	77.2
CCOC(=O)c1ccc(N2NC(=O)/C(=C/c3ccc([N+](=O)[O-])o3)C2=O)cc1	%	79.2
COC(=O)[C@]12CC[C@@H](C)[C@H](C)[C@@H]1C1=CC[C@@H]3[C@@]4(C)C(C=O)=C[C@@](C)(COS(C)(=O)=O)C4[C@H](O)C[C@@]3(C)[C@]1(C)CC2 (stereo partly specified)	%	-36
CC/C=C/C/C=C/C/C=C/C/C=C/C/C=C/C/C=C/CCC(=O)Nc1ccn([C@@H]2O[C@H](CO)[C@@H](O)C2(F)F)c(=O)n1	%	41
Cc1cccc(NC(=O)CSc2nc3ccccc3[nH]2)c1	%	91
COc1ccccc1CNCCCN1C(=O)c2ccc3c4c(ccc(c24)C1=O)C(=O)N(CCCNCCCCN)C3=O	%	-11.8
CN(C)CCNc1nc2ccccc2c2c1c1c(n2Cc2ccccc2)-c2ccccc2C1=O	%	-88.6
Cc1ccc2nc3ccccc3c(NCc3ccccc3)c2c1	%	29.7
CCCCCCCCCCCCCCCCCCOc1ccc(CC(=O)OCC[N+]2(C)CCCC2)cc1	%	99.9
COc1ccc(C(=NN=C(N)N)c2ccc(OC)cc2)cc1	%	30.6
